Reference source: paper PMC7397174

Measured viability at 48 h, 30 µM by item
# Test name: in vitro
# Assay type: cell-based, human
# Setup conditions: human, HEK293T Viability at 30 µM [%]
# Procedure: Cytotoxic effects of test compounds on eukaryotic cells were investigated using a HEK293T cell viability assay. First, the cell density of a HEK293T culture was determined. […] In cells with an active metabolism, the PrestoBlue dye is reduced, causing it to fluorescence. The fluorescence (λex = 560 nm, λem = 590 nm) was measured in an EnVision Multilable Plate Reader (Perkin Elmer, Waltham, MA, USA; integration time 0.1 sec/well).
Parameter: viability at 48 h, 30 µM

| Compound | Measured result |
| --- | --- |
| N#Cc1c(N)nc2sc(C(=O)Nc3ccc(Cl)cc3)c(N)c2c1-c1ccc(N2CCOCC2)cc1Cl | 92.3% |
| N#Cc1c(N)nc2sc(C(=O)Nc3ccc(F)cc3)c(N)c2c1-c1cccc(F)c1 | < 50% |
| CC(C)(C)OC(=O)N1CCN(c2ccc(-c3c(C#N)c(N)nc4sc(C(=O)Nc5cccc(Cl)c5)c(N)c34)c(Cl)c2)CC1 | 104% |
| Cc1nc2sc(C(=O)Nc3ccc(Cl)cc3)c(N)c2c(-c2ccccc2)c1C(=O)OC(C)(C)C [Compound 17g] | 56.9% |
